# Test system: KRas G12D mutant (Homo sapiens, UniProt P01116, G12D)
# Construct: fused on or other part: His tag, used for capture on nickel-coated plates
# Experimental details: Ras GTP binding domain inhibition assay (Cy3-GTP/Cy5-GTP competition)
# Particulars: at 20 μM, with SOS; read-out: KRas G12D mutant + SOS: % inh.
Some compounds, each annotated with its measured inhibition at 20 µM.

As a guide, the following entries are already answered.
| Compound | Result |
| --- | --- |
| COc1cccc(Cn2ccnc2-c2nc(O)c3scc(-c4ccccn4)c3n2)c1 [drawing 985] | 51 to 75% |
| O=C(c1nc(-c2ccccn2)nc(O)c1O)N1CCc2ccccc2C1 [drawing 967] | 26 to 50% |

According to the records, this compound CC(C)CN(C)C(=O)c1nc(-c2ccccn2)nc(O)c1O [drawing 933] displays inhibition at 20 µM of 26 to 50%

Noted for Oc1nc(-c2nccn2Cc2ccccn2)nc2c(-c3ccccn3)csc12 [drawing 986] : its inhibition at 20 µM reads 51 to 75%

---

# Test system: KRas G12D mutant (Homo sapiens, UniProt P01116, G12D)
# Construct: fused on or other part: His tag, used for capture on nickel-coated plates
# Experimental details: Ras GTP binding domain inhibition assay (Cy3-GTP/Cy5-GTP competition)
# Particulars: at 20 μM, without SOS; read-out: KRas G12D mutant: % inh.
Recorded endpoint: inhibition at 20 µM

| Compound | Result |
| --- | --- |
| COC1CCN(C(=O)c2sc3nc(-c4nccn4C)nc(N[C@H]4C[C@@H](OC)C4)c3c2-c2ccccc2)C1 (stereo partly shown) [drawing 1058] | 51 to 75% |

Kindly note the recorded inhibition at 20 µM for COC1CCN(c2nc(-c3nccn3C)nc3sc(-c4ccc(N)nc4C)c(-c4ccccc4)c23)C1 (stereo not shown) [drawing 953] , which is 1 to 25%

// COCC(C)Nc1nc(-c2nccn2C)nc2sc(-c3ccn(C)n3)c(-c3ccccc3)c12 (stereo not shown) [drawing 999] : inhibition at 20 µM value = 1 to 25%

Memo: CC(C)CNC(=O)c1nc(-c2ccccn2)nc(O)c1O [drawing 946] , reported inhibition at 20 µM: 51 to 75%

The measured inhibition at 20 µM associated with CO[C@H]1CC[C@@H](Nc2nc(-c3ncc[nH]3)nc3sc(-c4ccn(C)n4)c(-c4ccccc4)c23)C1 [drawing 1046] reads 26 to 50%

In plain terms, CO[C@H]1CC[C@@H](Nc2nc(-c3nccn3C)nc3sc(C(=O)NC(C)C)c(-c4ccccc4)c23)C1 [drawing 1059] has a documented inhibition at 20 µM of 76 to 100%

Lab note: O=C(c1nc(-c2ccccn2)nc(O)c1O)N1CCCC1 [drawing 966] gave inhibition at 20 µM of 51 to 75%

Entry COCCn1ccnc1-c1nc(O)c2scc(-c3ccccn3)c2n1 [drawing 987] , inhibition at 20 µM reported as 76 to 100%

Cn1ccc(-c2sc3nc(-c4nccn4C)nc(N[C@H]4C[C@@H](O)C4)c3c2-c2ccccc2)n1 [drawing 1043] has a reported inhibition at 20 µM of 0%

Input CO[C@H]1C[C@H](Nc2nc(-c3nccn3C)nc3sc(-c4ccn(C)n4)c(-c4ccccc4)c23)C1 [drawing 1041] . Output inhibition at 20 µM: 26 to 50%

Short answer for CO[C@H]1C[C@@H](Nc2nc(-c3nccn3C)nc3sc(C(=O)N4CCOCC4)c(-c4ccccc4)c23)C1 [drawing 1057] : inhibition at 20 µM was 51 to 75%

The compound COc1c(O)nc(-c2ccccn2)nc1Oc1ccc(C(=O)N(C)C)cc1 [drawing 1014] showed inhibition at 20 µM equal to 51 to 75%

Measured inhibition at 20 µM of COC1CCC(Nc2nc(-c3nccn3C)nc3sc(-c4cccc5[nH]ncc45)c(-c4ccccc4)c23)C1 (stereo not shown) [drawing 1023] : 26 to 50%

Reported inhibition at 20 µM of COc1cccc(-c2csc3c(O)nc(-c4nccn4C)nc23)c1Cl [drawing 1013] : 1 to 25%

Item: COCCNc1nc(-c2nccn2C)nc2sc(-c3ccccc3Cl)c(-c3ccc(OC)cc3)c12 [drawing 1011] | inhibition at 20 µM: 26 to 50%

inhibition at 20 µM recorded for this compound, Cn1ccc(-c2sc3nc(-c4nccn4C)nc(N[C@@H]4CC[C@H](O)C4)c3c2C2=CC=CCC=C2)n1 (racemic) , is 0%

Entry CO[C@H]1C[C@@H](Nc2nc(-c3nccn3C)nc3sccc23)C1 [drawing 1038] — recorded inhibition at 20 µM = 76 to 100%

For record CCN(CC)C(=O)c1nc(-c2nccn2C)nc(O)c1O [drawing 964] the listed inhibition at 20 µM is 51 to 75%

# compound CC(C)NC(=O)c1nc(-c2nccn2C)nc(O)c1O [drawing 965] ; its inhibition at 20 µM = 51 to 75%

Looking up Oc1nc(-c2cn(-c3ccccc3)cn2)nc2c(-c3ccccn3)csc12 [drawing 982] , I see its inhibition at 20 µM listed as 1 to 25%

Documented inhibition at 20 µM of CO[C@H]1C[C@@H](Nc2nc(-c3nccn3C)nc3sc(-c4ccn(C)n4)c(-c4ccccc4)c23)C1.Cl [drawing 1040] : 26 to 50%

For record COc1cccc(Cn2ccnc2-c2nc(O)c3scc(-c4ccccn4)c3n2)c1 [drawing 985] the listed inhibition at 20 µM is 76 to 100%

For CO[C@H]1CC[C@@H](Nc2nc(-c3nccn3C)nc3sc(-c4ccn(C(C)C)n4)c(C)c23)C1 [drawing 1054] the compound record lists inhibition at 20 µM as 51 to 75%

Input COC1CCN(c2nc(-c3nccn3C)nc3sc(-c4ccc(CO)cc4)c(-c4ccccc4)c23)C1 (stereo not shown) [drawing 954] . Output inhibition at 20 µM: 1 to 25%

inhibition at 20 µM measured on O=C(NCc1ccccc1)c1nc(-c2ccccn2)nc(O)c1O [drawing 956] = 51 to 75%
